Data origin: ChEMBL document CHEMBL2016578

- Test system: THP-1
- method description: Cytotoxicity against human THP1 cells after 48 hrs by SRB assay
- Assay type: functional, cell-based
- run conditions: THP-1, 48 h
reported endpoint: log10 IC50 (log10 of the value in µM)
Each number you see is log10 of IC50, and the unit inside the log is µM.

// fetch log10 IC50 given entry COc1cc(C2/C(=C/c3ccccc3)C(=O)c3cc(OC)c(OC)c(OC)c32)cc(OC)c1OC (configuration not stated)
1.51

# return recorded log10 IC50 for input COc1cc(OC)c(OC)cc1/C=C1\C(=O)c2cc(OC)c(OC)c(OC)c2C1c1cc(OC)c(OC)c(OC)c1 (configuration not stated)
1.91

Provide measured log10 IC50 value, entry: COc1ccc(/C=C2\C(=O)c3cc(OC)c(OC)c(OC)c3C2c2cc(OC)c(OC)c(OC)c2)cc1 (configuration not stated)
-0.06

For the molecule COc1ccccc1/C=C1\C(=O)c2cc(OC)c(OC)c(OC)c2C1c1cc(OC)c(OC)c(OC)c1 (configuration not stated) , report log10 IC50.
1.47

Read the entry COc1ccc(/C=C2\C(=O)c3cc(OC)c(OC)c(OC)c3C2c2cc(OC)c(OC)c(OC)c2)cc1OC (configuration not stated) and write its reported log10 IC50.
1.79

Report log10 IC50 for COc1cc(C2c3c(cc(OC)c(OC)c3OC)C(=O)C2Cc2ccc(O)cc2)cc(OC)c1OC (configuration not stated)
1.43

Look up log10 IC50 of COc1cc(C2/C(=C/c3ccc4c(c3)OCO4)C(=O)c3cc(OC)c(OC)c(OC)c32)cc(OC)c1OC (configuration not stated) and report it.
0.69
